Please provide measured CDMF75 IC15 for the entries that follow.
- Tested on: bovine cardiac myofibrils
- protocol: Myofibril assay: PK/LDH-coupled steady-state ATPase activity of skinned bovine cardiac myofibrils
- Type: biochemical
- test settings: Ca2+ activating to 75% of maximal rate
Reply with just the number (in µM).

Exercise: Query: CDMF75 IC15; subject: CC(C)N1CC(=O)N(Cc2ccc(Cl)cc2)C2(CN(c3ccncc3)C2)C1=O [Compound 8]
Solution: 3.3

Exercise: Query: CDMF75 IC15; subject: Cc1ccc(N2CC3(C2)C(=O)N(C(C)C)CC(=O)N3Cc2ccc(Cl)cc2)nn1 [Compound 55]
Solution: 6.7

Exercise: Query: CDMF75 IC15; subject: CC(C)N1CC(=O)N(Cc2ccc(Cl)cc2)C2(CN(c3cn[nH]c3)C2)C1=O [Compound 41]
Solution: 7.0

Exercise: Query: CDMF75 IC15; subject: Cc1cccc(CN2C(=O)CN(C(C)C)C(=O)C2c2ccc(Cl)cc2)c1 (stereo not shown) [Compound 304]
Solution: 16.4

Exercise: Query: CDMF75 IC15; subject: Cc1ccc(CN2C(=O)CN(c3ncc(Cl)cc3F)C(=O)[C@@H]2C23CC(C(N)=O)(C2)C3)cc1 [Compound 823]
Solution: 2.3

Exercise: Query: CDMF75 IC15; subject: CC(C)N1CC(=O)N(Cc2ccc(Cl)cc2)C(c2ccccc2Cl)C1=O (stereo not shown) [Compound 310]
Solution: 13.1

Exercise: Query: CDMF75 IC15; subject: C[C@@H](c1ccc(Cl)cc1)N1C(=O)CN(c2ncc(Cl)cc2F)C(=O)C12CN(C(=O)NC1CCOCC1)C2 [Compound 562]
Solution: 29.0

Exercise: Query: CDMF75 IC15; subject: CC(C)N1CC(=O)N(Cc2ccc(Cl)cc2)C2(CN(c3cc(Cl)cnn3)C2)C1=O [Compound 60]
Solution: 14.3

Exercise: Query: CDMF75 IC15; subject: CNC(=O)N1CC2(C1)C(=O)N(c1ccc(F)c(F)c1)CC(=O)N2Cc1ccc(C(F)(F)F)cc1 [Compound 152]
Solution: 2.8

Exercise: Query: CDMF75 IC15; subject: CC(C)N1CC(=O)N(Cc2ccc(Cl)cc2)C2(CN(c3ccn(C)c(=O)c3)C2)C1=O [Compound 42]
Solution: 5.4

Exercise: Query: CDMF75 IC15; subject: Cc1ccccc1CN1C(=O)CN(C(C)C)C(=O)C1c1ccc(Cl)cc1 (stereo not shown) [Compound 300]
Solution: 28.3

Exercise: Query: CDMF75 IC15; subject: C[C@@H](c1ccc(Cl)cc1)N1C(=O)CN(c2ncc(Cl)cc2F)C(=O)C12CN(C(=O)NC1CC1)C2 [Compound 559]
Solution: 25.1

Exercise: Query: CDMF75 IC15; subject: CC(=O)N1CCC2(C1)C(=O)N(c1ccc(C#N)cc1F)CC(=O)N2Cc1ccc(Cl)cc1 (stereo not shown) [Compound 205]
Solution: 0.7

The measured values listed here are drawn from patent US11414424B2.
